- Test system: CAKI-1 renal
- assay: NCI tumour cell line growth inhibition, 48 h
Answer each item with its documented GI50.

GI50 for COc1ccc(/C=C/C(=O)c2ccc(B(O)O)cc2)cc1O is 17.7 µM

GI50 for CC(=O)N[C@@H](Cc1ccc(OP(=O)(O)O)cc1)C(=O)N[C@H]1CCC(=O)N2CCC[C@@H](C(=O)NCc3cccc4ccccc34)N2C1=O is > 25 µM

GI50 for CC1(C)CC[C@]2(CO)CC[C@]3(C)C(=CC[C@@H]4[C@@]5(C)CC[C@H](NCO)C(C)(C)[C@@H]5CC[C@]43C)[C@@H]2C1 is 1.85 µM

GI50 for O=C(O)c1ccc(NCn2nc(-c3ccccc3O)oc2=S)cc1O is > 100 µM

GI50 for COc1cc2cc(Oc3ccc(NC(=O)Nc4ccc(F)c(C(F)(F)F)c4)cc3)c(C)nc2cc1OCCN1CCOCC1 is 2.06 µM

GI50 for NNC(=S)N/N=C/c1ccccn1 is 1.66 µM

GI50 for CCOC(=O)Nc1ccc2c3c(cccc13)-c1ccccc1-2 is 3.29 µM

GI50 for Fc1cc(C2=Nn3c(nnc3-c3cc(F)c(Cl)cc3Cl)SC2)c(Cl)cc1Cl is 20.6 µM

* * *

- Test system: NCI-H226 lung
- assay: NCI tumour cell line growth inhibition, 48 h
readout.kind: GI50

Entry Fc1ccc(-c2nn3c(COc4ccccc4Cl)nnc3s2)cc1Oc1ccccc1 under NCI-H226 lung had GI50 of 32.7 µM

Entry CC12OC(C(=O)C13CC3)C1C(=O)c3cccc(O)c3C(=O)C12 (stereo not given) under NCI-H226 lung had GI50 of 22.9 µM

Entry Cc1ccc([I+]c2ccc(C)cc2)cc1 under NCI-H226 lung had GI50 of 17.8 µM

Entry NS(=O)(=O)c1ccc(N=Nc2c(O)[nH]c3cccc(CCc4ccncc4)c23)cc1 under NCI-H226 lung had GI50 of > 25 µM

Entry O=C(NCCNc1nccc(-c2c(-c3ccc(F)cc3)nc3sccn23)n1)Nc1cccc(C(F)(F)F)c1 under NCI-H226 lung had GI50 of 2.38 µM

* * *

- Test system: SF-268 CNS
- assay: NCI tumour cell line growth inhibition, 48 h; in the data active = GI50 below about 0.43 µM; inactive = the rest
Thanks in advance; please answer with one of these: active, inactive

Each compound tested received a call. Report the one for CC1(C)CC[C@]2(CO)CC[C@]3(C)C(=CC[C@@H]4[C@@]5(C)CC[C@H](NCO)C(C)(C)[C@@H]5CC[C@]43C)[C@@H]2C1 .
inactive

Each compound tested received a call. Report the one for CCOC(=O)c1c2c(n(Cc3ccccc3)c1C)-c1nc[nH]c1C(=O)C2=O .
inactive

Each compound tested received a call. Report the one for CSc1nc(SC)c2cnn(-c3ccnc4cc(Cl)ccc34)c2n1 .
inactive

Each compound tested received a call. Report the one for CCOC(=O)Cc1csc(Nc2nc(O)c(C3=c4ccccc4=NC3=O)s2)n1 .
inactive

Each compound tested received a call. Report the one for COc1ccc(-c2cc(=O)c3cc4c(cc3[nH]2)OCO4)c(OC)c1 .
inactive

Each compound tested received a call. Report the one for Fc1cc(C2=Nn3c(nnc3-c3cc(F)c(Cl)cc3Cl)SC2)c(Cl)cc1Cl .
inactive

Each compound tested received a call. Report the one for Nc1n[nH]c2ccc([C@H]3[C@@H]4C5CCC(C5)[C@@H]4c4c(ccc5[nH]ncc45)N3S(=O)(=O)C3CC3)cc12 (stereo partly specified) .
inactive

Each compound tested received a call. Report the one for Oc1c(CCl)cc(Cl)cc1Cc1cc(Cl)cc(Cc2cc(Cl)cc(CCl)c2O)c1O .
inactive

Each compound tested received a call. Report the one for COc1cc2cc(Oc3ccc(NC(=O)Nc4ccc(F)c(C(F)(F)F)c4)cc3)c(C)nc2cc1OCCN1CCOCC1 .
inactive

Each compound tested received a call. Report the one for COc1cc2c3c(n(CCCNC(C)(C)CO)c(=O)c2cc1OC)-c1cc2c(cc1C3=O)OCO2 .
inactive

Each compound tested received a call. Report the one for O=C(NC(=S)Nc1ccc(-c2nc3ccccc3[nH]2)cc1)c1ccc2ccccc2c1 .
inactive

Each compound tested received a call. Report the one for CCOC(=O)Nc1ccc2c3c(cccc13)-c1ccccc1-2 .
inactive

Each compound tested received a call. Report the one for CC(=O)N[C@@H](Cc1ccc(OP(=O)(O)O)cc1)C(=O)N[C@H]1CCC(=O)N2CCC[C@@H](C(=O)NCc3cccc4ccccc34)N2C1=O .
inactive

Each compound tested received a call. Report the one for N#C/C(=C\c1ccc([N+](=O)[O-])cc1)n1nnc2cc(F)c(F)cc21 .
inactive

Each compound tested received a call. Report the one for CC(C)[C@]12O[C@H]1[C@@H]1O[C@]13[C@]1(O[C@H]1C[C@H]1C4=C(CC[C@@]13C)C(=O)OC4)[C@@H]2OC(=O)OC(C)(C)C .
active

Each compound tested received a call. Report the one for O=C(NCCNc1nccc(-c2c(-c3ccc(F)cc3)nc3sccn23)n1)Nc1cccc(C(F)(F)F)c1 .
inactive
